# SUBJECT_OF_TEST: DLG1_3, Q12959
# Sequence (Q12959 457-571): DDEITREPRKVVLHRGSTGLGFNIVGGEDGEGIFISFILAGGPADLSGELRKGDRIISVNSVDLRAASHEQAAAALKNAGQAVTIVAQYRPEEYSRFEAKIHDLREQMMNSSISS
# MEASUREMENT_PROTOCOL: holdup assay
# Parameters: key: below the threshold = too weak to quantify, mostly under pKd 3.1 to 4
# CONDITION_SET: plain residues with an end cap or a label only (N-terminal biotin on a linker: ado-ado)
MEASURED_ENDPOINT: pKd

Worked examples follow.
{"columns": ["BINDER", "pKd"],
 "data": [
  ["ATKDKKITTV [EXOC4, Q96A65]", 4.08],
  ["IQISELETNV [SLC1A7, O00341]", 3.57],
  ["SQDPKKPSRV [CBY2, Q8NA61]", "below the threshold"],
  ["PGKKPEDSRV [SLCO2B1, O94956]", "below the threshold"],
  ["NNMAFETTHF [SLC5A12, Q1EHB4]", "below the threshold"],
  ["VISSDDLTEL [CAPN6, Q9Y6Q1]", "below the threshold"]
]}

In the following, a different binder is considered.
What value of pKd has been reported for the following binder? KAEEKPPSKV [SCN4B, Q8IWT1]
below the threshold
